- Experimental system: UniProtKB P51812
- Sequence (P51812 whole entry): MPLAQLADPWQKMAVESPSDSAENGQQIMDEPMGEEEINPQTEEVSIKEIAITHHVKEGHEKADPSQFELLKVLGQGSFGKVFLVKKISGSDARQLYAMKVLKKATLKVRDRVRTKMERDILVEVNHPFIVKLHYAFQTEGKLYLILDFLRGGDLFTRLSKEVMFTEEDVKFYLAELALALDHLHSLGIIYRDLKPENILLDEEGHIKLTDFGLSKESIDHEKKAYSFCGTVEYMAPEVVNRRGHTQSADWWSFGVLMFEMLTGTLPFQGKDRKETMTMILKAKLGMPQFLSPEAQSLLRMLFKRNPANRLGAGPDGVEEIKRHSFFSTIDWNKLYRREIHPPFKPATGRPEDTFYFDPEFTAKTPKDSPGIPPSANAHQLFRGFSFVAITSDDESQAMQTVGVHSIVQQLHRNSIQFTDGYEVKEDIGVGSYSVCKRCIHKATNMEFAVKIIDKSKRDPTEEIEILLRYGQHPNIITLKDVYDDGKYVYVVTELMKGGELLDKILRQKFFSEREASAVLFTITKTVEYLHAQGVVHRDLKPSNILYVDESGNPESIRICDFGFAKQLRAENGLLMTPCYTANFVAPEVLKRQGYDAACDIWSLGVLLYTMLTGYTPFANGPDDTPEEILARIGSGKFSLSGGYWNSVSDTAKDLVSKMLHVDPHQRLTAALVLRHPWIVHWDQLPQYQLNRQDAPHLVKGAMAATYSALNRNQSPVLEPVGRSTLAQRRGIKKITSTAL
pIC50: −log10 of the molar value.
Measurement name: pIC50

• CC(=O)OC1C(C)OC(Oc2c(-c3ccc(O)cc3)oc3cc(O)cc(O)c3c2=O)C(O)C1O (stereo not shown) = 6.72
